Parameter growth: see the listing below.
# Test system: UO-31 renal
# method: NCI-60 one-dose screen, 48 h (100 = growth as untreated, 0 = no growth, -100 = all killed)
# test-settings: 10 µM unless noted
The panel holds about 83,000 compounds, 20% with a hit somewhere; the sample as a whole holds those more often. Activity calls are given as the source filed them. Rule for the calls: active = growth percent below 10; inactive = the rest.
measured-attribute: growth

molecule=CCCCCCCCOC(=O)c1ccc(O)c(OC)c1 subject_of_test="UO-31 renal" measured_attribute=growth result="50.8% (inactive)"
molecule=COc1ccc(/C=C\c2nc3ccccc3s2)cc1OP(=O)(O)O subject_of_test="UO-31 renal" measured_attribute=growth result="51.5% (inactive)"
molecule="COc1ccc2c(c1)OC1=C(C(=O)OC1)C2c1cc(OC)c(OC)c(OC)c1 (stereo not drawn)" subject_of_test="UO-31 renal" measured_attribute=growth result="51.5% (inactive)"

----------
Form field: growth (one value per entry).
# Test system: CAKI-1 renal
# method: NCI-60 one-dose screen, 48 h (100 = growth as untreated, 0 = no growth, -100 = all killed)
# test-settings: 10 µM unless noted
This is part of a sample that, as a whole, favours compounds with a hit. Of some 83,000 tested, about 20% had one in any assay.
measured-attribute: growth (%)

molecule=O=C1Nc2cc(-c3ccncc3)ccc2/C1=C/c1ccc[nH]1 measured_attribute=growth measure_unit=% quantitative_result=87.9
molecule="COc1ccc(C2=NN(C(C)=O)C(c3cn(Cc4ccc(Cl)cc4)c4ccccc34)C2)cc1 (centres undefined)" measured_attribute=growth measure_unit=% quantitative_result=52.2
molecule=CCOC(=O)c1c(SC)nn(-c2cc(=O)[nH]c3ccc(Br)cc23)c1N measured_attribute=growth measure_unit=% quantitative_result=87.2
molecule=Cc1cc2nc(-c3ccccc3)c(-c3ccccc3)nc2cc1C measured_attribute=growth measure_unit=% quantitative_result=98.7
molecule="COc1ccc(C2CC(n3nnnc3-c3ccccc3)=NN2)cc1 (centres undefined)" measured_attribute=growth measure_unit=% quantitative_result=8.64
molecule=CC(=O)[C@@H]1CC[C@]2(C(N)=O)CC[C@]3(C)[C@H](CC[C@@H]4[C@@]5(C)CCC(=O)C(C)(C)[C@@H]5CC[C@]43C)[C@@H]12 measured_attribute=growth measure_unit=% quantitative_result=89.6
molecule=COc1ccc(C(=O)c2cc3c(N)c(C(=O)Nc4ccc(Cl)cc4)sc3nc2C)cc1 measured_attribute=growth measure_unit=% quantitative_result=66.3
molecule=Cn1c2c(Cl)c(Cl)ccc2c2cc(N)[nH]c(=O)c21 measured_attribute=growth measure_unit=% quantitative_result=-23.4
molecule=COc1cc(COC(=O)CCCCC[P+](c2ccccc2)(c2ccccc2)c2ccccc2)c(OC)c2c1OCO2 measured_attribute=growth measure_unit=% quantitative_result=72.7
molecule=Fc1ccc(-n2cc(COc3ncnc4sc5c(c34)CCCC5)nn2)cc1Cl measured_attribute=growth measure_unit=% quantitative_result=92.7
molecule=CC[C@H](C)[C@@H]1NC(=O)[C@H](Cc2ccc(O)cc2)N(C)C(=O)[C@H](Cc2ccccc2)NC(=O)CN(C)C(=O)[C@@H]2CCCN2C(=O)[C@@H](Cc2ccccc2)N(C)C(=O)[C@H](CC(C)C)NC1=O measured_attribute=growth measure_unit=% quantitative_result=11.4
molecule=O=C(NNc1nc(Cl)nc(N2CCN(C(c3ccccc3)c3ccccc3)CC2)n1)c1ccccc1 measured_attribute=growth measure_unit=% quantitative_result=-51.9
molecule=C=C1C(=O)O[C@H]2[C@H]1CC/C(COC(=O)NCCc1c[nH]c3ccc(Cl)cc13)=C\CC[C@@]1(C)O[C@@H]21 measured_attribute=growth measure_unit=% quantitative_result=-100
molecule=COc1ccc(-c2nc(SC)nc(N3CCOCC3)c2C#N)cc1 measured_attribute=growth measure_unit=% quantitative_result=81.4
